system: mucin immobilized to PC IAM particles; assay: pH and mucin layer thickness dependence of partition ratio on MIC columns (1:2 and 2:1); details: column 2:1 mucin to PC IAM, 0.36 μm mucin layer; mobile phase pH 3
Structures can show the parent of a compound that is named as a salt.
Kindly apply the following: True if (2:1) k′ (pH 3) is less than 30, False in every other case.

Criterion: (2:1) k′ (pH 3) strictly below 30. Is it met by CC(C)NCC(O)COc1ccc(CC(N)=O)cc1 (stereo not drawn) ? True

For this compound, is (2:1) k′ (pH 3) lower than 30? CN(CC(=O)O)C(=N)N True

Please let me know if CC(C)(C)NCC(O)c1cc(O)cc(O)c1 (stereo not drawn) shows (2:1) k′ (pH 3) below 30. False

Field: below-cutoff. Rule: recorded (2:1) k′ (pH 3) strictly less than 30. Subject: CC(COc1ccccc1)N(CCCl)Cc1ccccc1 (stereo not drawn) [Phenoxybenzamine HCl] True

API: query returns whether the compound falls strictly under 30 in (2:1) k′ (pH 3). Query: O=C(O)c1cc(/N=N/c2ccc(S(=O)(=O)Nc3ccccn3)cc2)ccc1O False

Given C=CCc1ccccc1OCC(O)CNC(C)C (stereo not drawn) , is recorded (2:1) k′ (pH 3) strictly lower than 30? False

Is (2:1) k′ (pH 3) of Cn1c(=O)c2c(ncn2C)n(C)c1=O strictly below 30? False

Answer whether the compound CN/C(=N/CCSCc1nc[nH]c1C)NC#N has (2:1) k′ (pH 3) strictly less than 30 True

Please let me know if Cc1cc(=O)n(-c2ccccc2)n1C [Antipyrine] shows (2:1) k′ (pH 3) below 30. False

hey, is (2:1) k′ (pH 3) for C[C@]12C[C@H](O)[C@H]3[C@@H](CCC4=CC(=O)CC[C@@]43C)[C@@H]1CC[C@@H]2C(=O)CO lower than 30 or not? True

---

Assignment: determine reported (1:2) k′ (pH 5) for the given molecules.
tested on: mucin immobilized to PC IAM particles; experiment: pH and mucin layer thickness dependence of partition ratio on MIC columns (1:2 and 2:1); settings: column 1:2 mucin to PC IAM, 0.32 μm mucin layer; mobile phase pH 5
Answer using only a numeral; do not append any unit.

# return recorded (1:2) k′ (pH 5) for entry CN/C(=N/CCSCc1nc[nH]c1C)NC#N [Cimetidine] 29.00

Report (1:2) k′ (pH 5) for COc1ccc(Cl)cc1C(=O)NCCc1ccc(S(=O)(=O)NC(=O)NC2CCCCC2)cc1 [glybenclamide] 30.67

Annotate the molecule Cc1cc(=O)n(-c2ccccc2)n1C [Antipyrine] with its measured (1:2) k′ (pH 5). 54.00

Identify the reported (1:2) k′ (pH 5) for the following entry. CN(CC(=O)O)C(=N)N [Creatine] 39.00

Supply recorded (1:2) k′ (pH 5) for C=CCc1ccccc1OCC(O)CNC(C)C (stereo not drawn) [Alprenolol] here. 64.00

Consider the molecule C[C@]12C[C@H](O)[C@H]3[C@@H](CCC4=CC(=O)CC[C@@]43C)[C@@H]1CC[C@@H]2C(=O)CO [corticosterone] . State its measured (1:2) k′ (pH 5). 22.33

Using the record for CC(=O)CC(c1ccccc1)c1c(O)c2ccccc2oc1=O (stereo not drawn) [Warfarin] , state its measured (1:2) k′ (pH 5). 30.67

Tell me its (1:2) k′ (pH 5) given COCCc1ccc(OCC(O)CNC(C)C)cc1 (stereo not drawn) [Metoprolol] as the entry. 50.67

Supply (1:2) k′ (pH 5) value. Item: CC(C(=O)O)c1cccc(C(=O)c2ccccc2)c1 (stereo not drawn) [Ketoprofen] 29.00

For the molecule CC(C)NCC(O)COc1ccc(CC(N)=O)cc1 (stereo not drawn) [Atenolol] , give its measured (1:2) k′ (pH 5) value. 39.00

Query (1:2) k′ (pH 5) for CC(CCc1ccccc1)NCC(O)c1ccc(O)c(C(N)=O)c1 (stereo not drawn) [Labetalol] 24.00

Name the recorded (1:2) k′ (pH 5) of the molecule listed here: CC(C)(C)NCC(O)c1cc(O)cc(O)c1 (stereo not drawn) [Terbutaline] 49.00

Identify (1:2) k′ (pH 5) associated with the molecule O=C(O)c1cc(/N=N/c2ccc(S(=O)(=O)Nc3ccccn3)cc2)ccc1O [sulfasalazine] 85.67

Output (1:2) k′ (pH 5) of NS(=O)(=O)c1cc(C(=O)O)c(NCc2ccco2)cc1Cl [Furosemide] 37.33

Give the reported value of (1:2) k′ (pH 5) for this record: Cn1c(=O)c2c(ncn2C)n(C)c1=O [Caffeine] 44.00

Could you please provide reported (1:2) k′ (pH 5) for CN(Cc1cnc2nc(N)nc(N)c2n1)c1ccc(C(=O)N[C@@H](CCC(=O)O)C(=O)O)cc1 [amethopterin] ? Thanks! 29.00

Please report (1:2) k′ (pH 5) for the following molecule: CC(C)NCC(O)COc1cccc2ccccc12 (stereo not drawn) [Propranolol] 92.33

# return recorded (1:2) k′ (pH 5) for entry O=C(CCCN1CCC(O)(c2ccc(Cl)cc2)CC1)c1ccc(F)cc1 [haloperidol] 44.00

In one line, give reported (1:2) k′ (pH 5) of the entry Nc1nc2c(ncn2COCCO)c(=O)[nH]1 [Acyclovir] . 15.67
